Reference source: patent US8269019B2

Catalogue of IC50 values
Target: hQC (Homo sapiens, UniProt Q16769)
Sequence (Q16769 29-361): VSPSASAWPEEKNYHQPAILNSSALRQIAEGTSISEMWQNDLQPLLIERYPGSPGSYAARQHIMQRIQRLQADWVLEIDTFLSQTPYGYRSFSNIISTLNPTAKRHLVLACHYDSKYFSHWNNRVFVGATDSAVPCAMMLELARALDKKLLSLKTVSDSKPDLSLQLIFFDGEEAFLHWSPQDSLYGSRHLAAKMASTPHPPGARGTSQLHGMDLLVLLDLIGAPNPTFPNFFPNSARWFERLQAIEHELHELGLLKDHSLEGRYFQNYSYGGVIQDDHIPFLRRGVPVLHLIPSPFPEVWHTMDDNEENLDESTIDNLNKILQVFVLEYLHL
Numeric only. Scale: nM

molecule="COC1=C(C)C(c2ccc(C3CCC(F)(F)CC3)cc2)N(c2ccc3nc[nH]c3c2)C1=O (stereo not shown)" system_tested="hQC (Homo sapiens, UniProt Q16769)" measured_parameter=IC50 reported_result=292
molecule="COC1=C(C)C(c2cccc(Cl)c2Cl)N(c2ccc3[nH]cnc3c2)C1=O (stereo not shown)" system_tested="hQC (Homo sapiens, UniProt Q16769)" measured_parameter=IC50 reported_result=557
molecule="COC1=C(c2ccccc2)C(c2cc(F)cc(F)c2F)N(c2ccc3[nH]cnc3c2)C1=O (stereo not shown)" system_tested="hQC (Homo sapiens, UniProt Q16769)" measured_parameter=IC50 reported_result=317
molecule="COC1=C(C)C(C2CCC(c3ccccc3)CC2)N(c2ccc3nc[nH]c3c2)C1=O (stereo not shown)" system_tested="hQC (Homo sapiens, UniProt Q16769)" measured_parameter=IC50 reported_result=821
molecule="COC1=C(C)C(c2cccc(F)c2F)N(c2ccc3nc[nH]c3c2)C1=O (stereo not shown)" system_tested="hQC (Homo sapiens, UniProt Q16769)" measured_parameter=IC50 reported_result=117
molecule="COC1=C(C)C(c2ccc(C3CCCCC3)cc2)N(c2ccc3nc[nH]c3c2)C1=O (stereo not shown)" system_tested="hQC (Homo sapiens, UniProt Q16769)" measured_parameter=IC50 reported_result=195

Prompt: Param readout= IC50; system= hQC (Homo sapiens, UniProt Q16769); entry= COC1=C(C)[C@@H](c2cccc(F)c2F)N(c2ccc3nc[nH]c3c2)C1=O (single isomer, unassigned) ; returns value.
Completion: 169
